Listed here: items and their measured MCC.
# method-summary: Cytotoxic concentration required to cause microscopically detectable alteration of normal cell morphology of HeLa cells
# Assay type: cell-based
# condition-label: human, read-out: CC50
attribute-measured: MCC

[[record]]
molecular_string = "O=c1[nH]c(=O)n([C@H]2C[C@H](O)[C@@H](CO)O2)cc1/C=C/Br"
val = "> 400 µg/mL"

[[record]]
molecular_string = "Cc1c(Br)c(C)n2c(CSCCO)cnc2c1Br"
val = "> 200 µg/mL"

[[record]]
molecular_string = "NC(=O)c1ncn([C@@H]2O[C@H](CO)[C@@H](O)[C@H]2O)n1"
val = "> 200 µg/mL"


These measurements were taken from ChEMBL document CHEMBL1129240.
